# Measured target: human D3 receptor (Homo sapiens, UniProt P35462)
# Construct: expressed in transfected cells
# Sequence (P35462 whole entry): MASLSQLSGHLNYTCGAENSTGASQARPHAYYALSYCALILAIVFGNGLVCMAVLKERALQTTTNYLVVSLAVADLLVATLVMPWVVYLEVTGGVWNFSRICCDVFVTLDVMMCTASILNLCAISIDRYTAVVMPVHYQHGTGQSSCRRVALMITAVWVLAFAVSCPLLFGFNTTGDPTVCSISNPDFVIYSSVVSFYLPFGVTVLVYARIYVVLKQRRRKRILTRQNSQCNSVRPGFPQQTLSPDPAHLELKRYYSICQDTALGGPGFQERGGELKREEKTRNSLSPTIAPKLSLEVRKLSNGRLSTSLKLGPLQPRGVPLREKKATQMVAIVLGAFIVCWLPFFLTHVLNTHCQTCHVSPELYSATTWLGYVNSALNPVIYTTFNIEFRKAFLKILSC
# Assay method text: D3R radioligand binding, [3H]N-methylspiperone, HEK293 membranes
# Assay conditions: [3H]N-methylspiperone; mean ± SEM of at least three experiments; read-out: D3R Ki ± SEM
Readout kind: pKi
In textbook form, pKi equals minus log to base ten of the concentration in mol/L.

Compound | Reported measurement
O=C1CCCN1[C@H]1CC[C@H](CCN2CCN(c3cccc(Cl)c3Cl)CC2)CC1 [Compound 36a] | 9.27
O=C1NCCCN1[C@H]1CC[C@H](CCN2CCN(c3cccc(Cl)c3Cl)CC2)CC1 [Compound 35b] | 8.53
O=C1CCCCN1[C@H]1CC[C@H](CCN2CCN(c3cccc(Cl)c3Cl)CC2)CC1 [Compound 36b] | 8.76

Provide one value: measured pKi of O=C1NCCN1[C@H]1CC[C@H](CCN2CCN(c3cccc(Cl)c3Cl)CC2)CC1 [Compound 35a] 9.36

====

# Measured target: 5-HT2B (Homo sapiens, UniProt P41595)
# Sequence (P41595 whole entry, species assumed): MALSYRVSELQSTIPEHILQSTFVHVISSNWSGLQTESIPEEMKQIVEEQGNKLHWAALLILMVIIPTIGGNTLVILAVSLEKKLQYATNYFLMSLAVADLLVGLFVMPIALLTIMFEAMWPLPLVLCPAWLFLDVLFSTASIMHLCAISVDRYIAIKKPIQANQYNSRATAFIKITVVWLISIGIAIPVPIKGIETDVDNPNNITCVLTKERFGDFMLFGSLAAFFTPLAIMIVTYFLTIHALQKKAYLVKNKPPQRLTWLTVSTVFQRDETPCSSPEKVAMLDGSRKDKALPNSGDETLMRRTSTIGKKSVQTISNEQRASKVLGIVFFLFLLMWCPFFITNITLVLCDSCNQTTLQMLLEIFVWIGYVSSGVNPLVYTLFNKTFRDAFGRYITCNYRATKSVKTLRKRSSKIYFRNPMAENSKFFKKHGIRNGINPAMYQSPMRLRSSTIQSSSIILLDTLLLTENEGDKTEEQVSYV
# Assay method text: 5-HT2B IP-1, antagonist
# Format: cell-based
Readout kind: pIC50
Worth noting: pIC50 values are minus log10 of concentrations stated in mol/L.

Retrieve pIC50 measured for COCCC(=O)N[C@H]1CC[C@H](CCN2CCN(c3cccc(OC)c3F)CC2)CC1 [Compound 13c] and print it. 6.28

====

# Measured target: 5-HT2C (Homo sapiens)
# Sequence (P28335 33-458, species assumed): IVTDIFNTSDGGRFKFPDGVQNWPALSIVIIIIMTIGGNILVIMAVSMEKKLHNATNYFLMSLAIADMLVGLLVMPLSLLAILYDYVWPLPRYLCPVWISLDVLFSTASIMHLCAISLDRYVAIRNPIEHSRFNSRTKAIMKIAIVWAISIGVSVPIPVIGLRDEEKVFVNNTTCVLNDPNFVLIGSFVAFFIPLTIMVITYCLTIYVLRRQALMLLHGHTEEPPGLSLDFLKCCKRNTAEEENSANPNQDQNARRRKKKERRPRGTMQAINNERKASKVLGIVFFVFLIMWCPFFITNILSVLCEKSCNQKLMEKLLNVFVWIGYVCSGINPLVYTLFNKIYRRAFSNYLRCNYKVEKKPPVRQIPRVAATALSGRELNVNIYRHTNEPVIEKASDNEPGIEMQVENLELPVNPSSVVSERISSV
# Assay method text: 5-HT2C IP-1, antagonist
Readout kind: IC50

Given the compound CN(C)C(=O)N[C@H]1CC[C@H](CCN2CCN(c3cccc(Cl)c3Cl)CC2)CC1 , write its reported IC50. > 5 µM

====

# Measured target: 5-HT2C (Homo sapiens)
# Assay method text: 5-HT2C IP-1, agonist
# Assay type: cell-based
# Assay conditions: agonist mode; read-out: 5-HT2C IP-1 EC50 ± SEM
Readout kind: EC50 (nM)
All answers are understood in nM, so give the number only.

Give reported EC50 for CN(C)C(=O)N[C@H]1CC[C@H](CCN2CCN(c3cccc(Cl)c3Cl)CC2)CC1 (5-HT2C (Homo sapiens)) 215

====

# Measured target: 5-HT2C (Homo sapiens)
# Assay method text: 5-HT2C IP-1, agonist
# Format: cell-based
Readout kind: EC50
Show the value, then the unit it is measured in.

In one line, give reported EC50 of the entry CCc1cccc(N2CCN(CC[C@H]3CC[C@H](NC(=O)CCOC)CC3)CC2)c1Cl [Compound 13b] . 43.5 nM

====

Listing of entries alongside the reported Ki.
# Measured target: human D2L receptor (Homo sapiens, UniProt P14416)
# Construct: expressed in transfected cells
# Sequence (P14416 whole entry): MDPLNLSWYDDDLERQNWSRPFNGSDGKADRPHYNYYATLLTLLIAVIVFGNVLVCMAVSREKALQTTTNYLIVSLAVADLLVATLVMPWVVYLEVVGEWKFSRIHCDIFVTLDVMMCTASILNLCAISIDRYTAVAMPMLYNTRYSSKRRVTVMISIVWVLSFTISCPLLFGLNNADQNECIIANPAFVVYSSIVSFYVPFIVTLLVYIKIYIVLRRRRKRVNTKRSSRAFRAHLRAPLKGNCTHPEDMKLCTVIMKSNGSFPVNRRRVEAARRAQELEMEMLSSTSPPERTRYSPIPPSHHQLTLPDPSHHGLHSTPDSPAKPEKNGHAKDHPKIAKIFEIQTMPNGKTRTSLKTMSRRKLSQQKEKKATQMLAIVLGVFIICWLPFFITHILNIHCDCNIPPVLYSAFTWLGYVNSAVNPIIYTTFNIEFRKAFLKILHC
# Assay method text: D2R radioligand binding, [3H]N-methylspiperone, HEK293 membranes
# Assay conditions: read-out: D2R Ki ± SEM
Give the value, in units of nM, as a plain number.

Below, each entry is followed by its recorded Ki result.
Compound | Ki, nM
O=C1CCCCN1[C@H]1CC[C@H](CCN2CCN(c3cccc(Cl)c3Cl)CC2)CC1 [Compound 36b] | 9.89
O=C1NCCN1[C@H]1CC[C@H](CCN2CCN(c3cccc(Cl)c3Cl)CC2)CC1 [Compound 35a] | 5.66
O=C1CCCN1[C@H]1CC[C@H](CCN2CCN(c3cccc(Cl)c3Cl)CC2)CC1 [Compound 36a] | 4.49

Kindly indicate its recorded Ki. Item: O=C1NCCCN1[C@H]1CC[C@H](CCN2CCN(c3cccc(Cl)c3Cl)CC2)CC1 [Compound 35b] 19
